Target: Human M4 (Homo sapiens, UniProt P08173)
Sequence (P08173 1-479): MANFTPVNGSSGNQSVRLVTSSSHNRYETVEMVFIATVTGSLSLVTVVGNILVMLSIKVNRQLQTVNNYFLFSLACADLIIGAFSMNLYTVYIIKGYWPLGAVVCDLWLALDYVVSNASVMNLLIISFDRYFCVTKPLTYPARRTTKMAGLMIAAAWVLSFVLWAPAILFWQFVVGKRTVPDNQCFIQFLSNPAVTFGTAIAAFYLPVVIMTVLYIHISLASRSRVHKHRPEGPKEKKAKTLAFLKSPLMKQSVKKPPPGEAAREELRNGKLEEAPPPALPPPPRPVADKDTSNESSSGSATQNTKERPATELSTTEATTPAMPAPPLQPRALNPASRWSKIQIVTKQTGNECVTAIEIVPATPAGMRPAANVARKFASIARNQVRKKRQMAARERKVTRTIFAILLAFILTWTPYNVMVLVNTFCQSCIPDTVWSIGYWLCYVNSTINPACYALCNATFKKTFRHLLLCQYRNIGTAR
Assay: mAChR M4 cell-based functional assay (calcium flux, antagonism of EC80 acetylcholine response)
Settings: M4/Gqi5/CHO-K1 cells; decrease of response elicited by EC80 acetylcholine
pIC50: −log10 of the molar value.
Experimental endpoint: pIC50

These recorded examples may help you get a feel for the data.
[2H]C([2H])(C1CCOCC1)N1C[C@H]2C[C@H](Nc3nnc(-c4ccc5ccccc5c4)c(C)c3C)C[C@H]2C1 [compound 71] : 7.90
Cc1ccc(F)cc1-c1cc(C(F)F)c(N[C@H]2C[C@@H]3CN(CC4CCOCC4)C[C@@H]3C2)nn1 [compound 59] : 8.92

(a) Cn1cc2cc(-c3cc(C(F)F)c(N[C@H]4C[C@@H]5CN(CC6CCOCC6)C[C@@H]5C4)nn3)ccc2n1 [compound 83]
(b) Fc1ccc(F)c(-c2cc(C(F)F)c(N[C@H]3C[C@@H]4CN(CC5CCOCC5)C[C@@H]4C3)nn2)c1 [compound 58]
(c) [2H]C([2H])(C1CCOCC1)N1C[C@H]2C[C@H](Nc3nnc(-c4cc(F)ccc4C)c(C)c3C)C[C@H]2C1 [compound 63]
(d) COc1cc(-c2cc(F)ccc2F)nnc1N[C@H]1C[C@@H]2CN(CC3CCOCC3)C[C@@H]2C1 [compound 4]
(e) [2H]C([2H])(C1CCOCC1)N1C[C@H]2C[C@H](Nc3nnc(-c4ccc(F)cc4)c(C)c3C)C[C@H]2C1 [compound 70]
Sort (5 compounds) by pIC50: min first. List the labels, following the order given in the request. e, d, b, a, c
(e: 7.62, d: 7.92, b: 8.19, a: 8.64, c: 9.04)

(A) OC1(CN2C[C@H]3C[C@H](Nc4cc(C(F)F)c(-c5cc(F)cc(F)c5F)nn4)C[C@H]3C2)CCOCC1 [compound 55]
(B) Cc1c(-c2ccc3nn(C)cc3c2)nnc(N[C@H]2C[C@@H]3CN(CC4CCOCC4)C[C@@H]3C2)c1C#N [compound 72]
(C) [2H]C([2H])(C1CCOCC1)N1C[C@H]2C[C@H](Nc3nnc(-c4cc(F)cc(F)c4F)cc3C(F)F)C[C@H]2C1 [compound 88]
Sort (3 compounds) by pIC50: min first. List the labels, following the order given in the request. C, A, B
